The reader will find reported Kd values listed item by item below.
TARGET_OR_TEST_SYSTEM: T1, Cynomolgus monkey CD33 (cynomolgus monkey)
T1 construct: Used for recombinant CD33 on HEK293AD cells and endogenous CD33 on cynomolgus CD14+/CD33+ myeloid cells; also called cynoCD33; cyno CD33
ASSAY_METHOD_TEXT: Scatchard analysis, [125I]-labeled antibody competed by unlabeled antibody, HEK293AD cells stably expressing cynomolgus CD33
API: value field is a number in nM; no unit string.

15G15.83 (antibody, V domains shown, Variant of 15G15) VH: QVQLVQSGAEVKKPGSSVKVSCKASGGIFSNHAISWVRQAPGQGLEWMGGIIPIFGTANYAQKFQGRVTITADESTSTAFMELSSLRSEDTAVYYCAREWADVFDIWGQGTMVTVSS VL: EIVLTQSPLSLPVTPGEPASISCRSSQSLLHSNGYNYLDWYLQKPGQSPQLLIYLGAYTVSGVPDRFSGSGSGTDFTLKISRVEAEDVGVYYCMQALQTPWTFGQGTKVEIK	0.2

# input Using known records, supply Kd for 33F9 (antibody, V domains shown) VH: EVQLQQSGPELVKPGASVKMSCKASGYTFTSYVMHWMKQKPGQGLEWIGYINPYNDGTKYNDKFKGKATLTSDKSSSTAYMELSSLTSEDSAVYYCARGSNYEDFAMDYRGQGTSVTVSS VL: DIVMTQSPASQSASLGESVTITCLASQTIGTWLAWYQQKPGKSPQLLIYAATTLADGVPSRFSGSGSGTKFSFKISSLQAEDFVSYYCQQLYSTPLTFGGGTKVEIK
# output 0.92

# input Give the measured Kd for 15G15.88 (antibody, V domains shown, Variant of 15G15) VH: QVQLVQSGAEVKKPGSSVKVSCKASGGIFSNHAISWVRQAPGQGLEWMGGIIPIFGTANYAQKFQGRVTITADESTSTAFMELSSLRSEDTAVYYCAREWADVFDIWGQGTMVTVSS VL: EIVLTQSPLSLPVTPGEPASISCRSSQSLLHSNGYNYLDWYLQKPGQSPQLLIYLGNYRVSGVPDRFSGSGSGTDFTLKISRVEAEDVGVYYCMQALQTPWTFGQGTKVEIK
# output 0.2

# input Supply reported Kd belonging to this binder: 15G15.33 (antibody, V domains shown, Variant of 15G15) VH: QVQLVQSGAEVKKPGSSVKVSCKASGGIFSNHAISWVRQAPGQGLEWMGGIIPIFGTANYAQKFQGRVTITADESTSTAFMELSSLRSEDTAVYYCAREWADVFDIWGQGTMVTVSS VL: EIVLTQSPLSLPVTPGEPASISCRSSQSLLHSNGYNYLDWYLQKPGQSPQLLIYLGVNSVSGVPDRFSGSGSGTDFTLKISRVEAEDVGVYYCMQALQTPWTFGQGTKVEIK
# output 0.3

# input Return Kd for the following binder: 27C6 (antibody, V domains shown) VH: EVQLQQSGPELVKPGASVKVSCKASGYAFTSYNMYWVKQSHGKSLEWIGYIDPYNGGTRHNQKFKDKATLTVDKSSSTAYMHLNSLTSEDSAVYYCASQNYEYFDYWGQGTTLTVSS VL: DIVLTQSPKFMSTSVGDRVSITCKASQDVGDAVAWYQQKPGQSPKLLFYWTSTRHTGVPDRFTGSGSGTEFTLTIRNVQSEDLADYFCQQYRSTPLTFGSGTKVEIK
# output 4.5

# input Provide Kd value for the following binder: 9C3 (antibody, V domains shown, atypical N-linked glycosylation site in the heavy chain between CDR2 and CDR3 at position 69 (kabat #)) VH: EVQLVESGGALIQPGGSLRLSCVASGFTISGNYMSWVRQAPGKGLEWVSLIYSGDSTYYADSVKGRFNISRDISKNTVYLQMNSLRVEDTAVYYCVRDGYYVSDMVVWGKGTTVTVSS VL: DIQMTQSPSSLSASVGDRVTITCRASQGIRNDLGWYQQKPGKAPKRLIYAASSLQSGVPSRFSGSGSGTEFTLTISSLQPEDFATYYCLQHNSYPWTFGQGTKLEIK
# output 0.6
